Molecular target: Dictyostelium discoideum myosin 2 motor domain (DdMD) (Dictyostelium discoideum)
Construct: Dictyostelium discoideum myosin 2 motor domain (DdMD)
Sequence (P08799 86-759 limits assumed): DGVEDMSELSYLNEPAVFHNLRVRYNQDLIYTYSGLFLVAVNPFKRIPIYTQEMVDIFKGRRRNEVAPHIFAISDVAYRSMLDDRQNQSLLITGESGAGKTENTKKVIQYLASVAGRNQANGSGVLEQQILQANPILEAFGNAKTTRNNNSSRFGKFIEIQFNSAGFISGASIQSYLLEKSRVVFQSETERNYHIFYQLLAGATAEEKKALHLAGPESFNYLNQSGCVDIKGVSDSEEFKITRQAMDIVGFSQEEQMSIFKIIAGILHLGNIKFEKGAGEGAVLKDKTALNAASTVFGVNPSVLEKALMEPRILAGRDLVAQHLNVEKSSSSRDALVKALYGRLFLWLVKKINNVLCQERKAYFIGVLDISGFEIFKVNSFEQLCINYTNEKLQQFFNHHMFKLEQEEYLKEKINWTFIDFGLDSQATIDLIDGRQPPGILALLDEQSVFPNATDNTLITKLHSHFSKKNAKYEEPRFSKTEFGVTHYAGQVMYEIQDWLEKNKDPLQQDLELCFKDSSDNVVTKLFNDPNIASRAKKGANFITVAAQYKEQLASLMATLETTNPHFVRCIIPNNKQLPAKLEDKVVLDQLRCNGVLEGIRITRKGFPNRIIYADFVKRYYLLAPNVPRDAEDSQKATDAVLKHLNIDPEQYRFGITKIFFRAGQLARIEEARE
Assay: Steady state MgATPase, NADH-coupled assay, DdMD
Assay type: biochemical
Conditions: actin activated, 300 nM DdMD, 15 μM actin, 20° C.; read-out: IC50 actin activated ATPase activity of DdMD
Measurement type: IC50 (µM)
Your answer is read as µM, so omit the unit and give the number.

Query Cc1ccc2c(c1)C(=O)C1(O)CCN(c3ccc(N)cc3)C1=N2 (stereo not shown) on Dictyostelium discoideum myosin 2 motor domain (DdMD) (Dictyostelium discoideum); IC50 returned: 6.7

====

Assay: Water solubility and solution stability in assay buffer
Assay type: physicochemical
Settings: assay buffer with 0.1 vol/vol % DMSO, pH 7.3, aqueous buffer, kinetic from dmso stock, 0.1 vol/vol % DMSO in assay buffer pH 7.3, room temperature; read-out: saturation concentration (solubility)
Measurement type: solubility

Please fill in: solubility reported for Cc1ccc2c(c1)C(=O)C1(O)CCN(c3ccc(N)cc3)C1=N2 (stereo not shown) = ~298 µM
